inhibition at 250 µM reference
tested on: platelets (platelet rich plasma); experiment: Inhibition of platelet aggregation, collagen as agonist; type: cell-based; settings: compound 250 μM, collagen 5 μg/mL, human PRP, read-out: % Reduction in Aggregation, Collagen (5 μg/mL)

structure-smiles: Cc1ncc(CNC(=O)c2ccc(-c3ccc(C(=N)N)cc3)cc2)c(CO)c1O
inhibition at 250 µM: 64%
--
structure-smiles: COC(=O)c1c(CNC(=O)c2ccc(-c3ccc(C(=N)N)cc3)cc2)cnc(C)c1OC
inhibition at 250 µM: 24%
--
structure-smiles: Cc1ncc(CNc2ccc(-c3ccc(C(=N)N)cc3)cc2)c(C)c1O
inhibition at 250 µM: 0%
--
structure-smiles: Cc1ncc(CNc2ccc(-c3ccc(C(=N)N)cc3)cc2C(F)(F)F)c(CO)c1O
inhibition at 250 µM: 6%
